Quick record: Ki, 5-HT5A (Homo sapiens).
Counter-ions that a name gives are not always drawn.

Molecule | Assayed target | Ki
COc1cccc(Cl)c1Cc1cc2ncccc2nc1N [Example 58] | 5-HT5A (Homo sapiens) | < 300 nM

Task item: Please look at this molecule and report its Ki: COc1cccc(OC)c1CN1Cc2ccccc2N=C1NCc1ccccc1 [Example 95, hydrochloride]
Reply: < 10000 nM

Task item: Please look at this molecule and report its Ki: NC1=Nc2ccccc2CN1Cc1cccc2c1OCC2 [Example 68, hydrochloride]
Reply: < 300 nM

* * *

Quick record: Ki, 5-HT5A (Homo sapiens, UniProt P47898).
Where a name gives a salt, the structure may show the parent alone.

Below, each entry is followed by its recorded Ki result.
Compound | Measured value
COc1ccccc1CN1Cc2ccccc2N=C1NCc1cccnc1 [Example 75, acetate] | < 10 µM
CC(C)Oc1cccc(F)c1Cc1cc2ccccc2nc1N [Example 56, hydrochloride] | < 0.3 µM
COc1cccc(OC)c1CN1Cc2ccc(Nc3ccccc3)cc2N=C1N [Example 88, acetate] | < 0.3 µM

Task item: Please look at this compound and report its Ki: COc1ccccc1CN1Cc2ccccc2N=C1NCc1cccs1 [Example 100, hydrochloride]
Reply: < 10 µM

Task item: Please look at this compound and report its Ki: COc1cccc(OC)c1CN1Cc2ccccc2N=C1NCc1ccccn1 [Example 94, hydrochloride]
Reply: < 10 µM

Task item: Please look at this compound and report its Ki: COc1ccccc1CN1Cc2ccccc2N=C1N1CCN(C)CC1 [Example 79, fumarate]
Reply: < 10 µM

Task item: Please look at this compound and report its Ki: Nc1nc2ccccc2cc1Cc1ccccc1O [Example 25, 2-[(2-Aminoquinolin-3-yl)methyl]phenol]
Reply: < 0.3 µM

Task item: Please look at this compound and report its Ki: COc1cccc(OC)c1Cc1cc2ncccc2nc1N
Reply: < 0.3 µM
